Reference source for all entries: the supplement of paper PMC7125110

Item-by-item account of self-cleavage kobs at 10000 uM GlcN6P
B1: glmS ribozyme (parent)
chain: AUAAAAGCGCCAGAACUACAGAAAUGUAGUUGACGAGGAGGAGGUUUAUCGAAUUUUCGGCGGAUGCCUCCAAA

# Variants of: B1
# EXPERIMENTAL PROTOCOL: self-cleavage kobs at 10000 uM GlcN6P; higher = faster cleavage; RNA array
# ASSAY CONDITIONS: with glucosamine-6-phosphate
This sample holds only a part of the variants without activity.
Express the result in s⁻¹ but write the number alone.

Answered cases to consult:
Short answer for A42G A53C : self-cleavage kobs at 10000 uM GlcN6P was 0.0076

The recorded self-cleavage kobs at 10000 uM GlcN6P for entry C16U U54A equals 0.0405

Item: G29U C58G | self-cleavage kobs at 10000 uM GlcN6P: 7.67e-05

Next:
Memo: G38U G66A U69G , reported self-cleavage kobs at 10000 uM GlcN6P: 4.02e-05

response.value for G37C U54C (field: self-cleavage kobs at 10000 uM GlcN6P) = 3.48e-05
